# Test system: K562 CRISPRi cells
# experiment: Constant region variant library pooled growth screen, K562
# Format: cell-based, human
# measurement context: sgRNA constant region variants; activity relative to the original, un-modified constant region cr995

[
  {
    "molecule": "cr818 (nucleic acid, listed as DNA, chemistry not fully specified) guide: GTTTAAGAGCTAAGCTGGAAACAGCATAGGAAGTTTAAATAAGGCTAGTCCGTTATCAACTTGAAAAAGTGGCACCGAGTCGGTGCT",
    "Mean relative activity": 0.7972
  },
  {
    "molecule": "cr292 (nucleic acid, listed as DNA, chemistry not fully specified) guide: GTTTAAGAGCTAAGCTGGAAACAGCATAGCAAGTTTAAATAAGGCTAGTCCGTTATCAACTTGAAAAAGTCGCACCGAGTCGGTGCT",
    "Mean relative activity": 0.6902
  }
]
